Reference source: patent US20250027068

target: pooled human IgG (human IgG1, 2, 3 and 4)
Measurement Name: Enzyme Activity Endpoint Assay: IgG (ng/µL)
Respond numerically; units are ng/µL and should not be typed.

GET /values?readout=Enzyme Activity Endpoint Assay: IgG&item= PRT-392 (protein) MVTSVWTKGVTPPTNFTYGEDVLHAPYVANQGWYDITKTFNGKDDLLCGAATAGNMLHWWFDQNKEQIENYLKKHPEKQKINFNGEQMFDVKEAIDTKDSQLDSKLFEYFKEKAFPYLSTKHLGVFPDHVIDMFINGYRLSLTNHGPTPVKRGSKDPRGGIFDAVFTRGVQSKLLTNRHDFKEKTLKEISDLIKQELTEGKALGISHTYANVRINHVINLWGADFDAEGNLEAIYVTDSDSNASIGMKKYFVGVNSNGKVAISAKEIEEDNIGAQVLGLFTLSTGQDIWNQTN
0
